experiment_description: PK in Sprague-Dawley rats (plasma, brain, CSF)
Assay type: in vivo, rat
particulars: male, Sprague-Dawley, rat; plasma; IV 1 mg/kg
value_kind: AUC(0-inf) (ng·h/mL)
// units = ng·h/mL; emit number, no label

Any idea what AUC(0-inf) was measured for COc1cc(SC(F)(F)F)c(OC)cc1CCN [Compound I-1] ?
210

* * *

experiment_description: PK profile in C57BL/6J mice (plasma, brain)
Assay type: in vivo, mouse
particulars: male, C57BL/6J, mouse, sc; plasma; s.c. 3 mg/kg; read-out: AUCINF—obs
value_kind: AUC(0-inf) (ng·h/mL)
# number only, unit ng·h/mL dropped from output

What AUC(0-inf) value was documented for this compound, COc1cc(SC(F)(F)F)c(OC)cc1CCN [Compound I-1] ?
1000
